Test: Luminescence Cell-Based Dose Confirmation HTS to Identify Inhibitors of Platelet Dense Granule Release. [Related pubchem assays: 1663 (Primary HTS), 1678 (Summary of Project)]
Format: functional
Active and inactive are the calls of the source. No stated cut-off is given here; in the data, actives have a measured EC50 and inactives only a lower limit.
Provide the reported EC50 of each item.

Input "O=C(N1CCOCC1)N1CCN(S(=O)(=O)N2CCOCC2)CC1" . Output EC50: > 112 µM (not active)

Input "Oc1ccc(N=Nc2ccc3ccccc3c2)cc1" . Output EC50: 3.76 µM (active)

Input "CCN=C(S)NNC(=O)c1cc(-c2ccc(OC)cc2)nc2ccccc12" . Output EC50: 1.38 µM (active)

Input "CCn1cc(C(=O)N[C@@H](CCSC)C(=O)NCCCn2ccnc2)c(=O)c2cc3c(cc21)OCO3" . Output EC50: > 112 µM (not active)
